Target: T1, human CD20 antigen (human, UniProt P11836 1-297)
T1 sequence (looked up): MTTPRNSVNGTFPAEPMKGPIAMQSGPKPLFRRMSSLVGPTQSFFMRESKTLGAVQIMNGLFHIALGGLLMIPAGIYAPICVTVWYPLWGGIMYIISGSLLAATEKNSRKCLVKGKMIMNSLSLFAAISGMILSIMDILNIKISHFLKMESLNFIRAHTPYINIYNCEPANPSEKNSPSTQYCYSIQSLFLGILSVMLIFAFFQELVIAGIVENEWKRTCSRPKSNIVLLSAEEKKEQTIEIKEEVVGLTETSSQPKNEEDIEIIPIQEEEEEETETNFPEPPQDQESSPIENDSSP
Experiment: cell-based or functional assay
Quantity name: CDC (10 ug/ml), RC-K8

Item: humanized 1K1791 antibody ff (FraL x FraH) (antibody, V domains shown, Kappa, gamma 1 construct; also called hz1791 ff; Ff019) VH: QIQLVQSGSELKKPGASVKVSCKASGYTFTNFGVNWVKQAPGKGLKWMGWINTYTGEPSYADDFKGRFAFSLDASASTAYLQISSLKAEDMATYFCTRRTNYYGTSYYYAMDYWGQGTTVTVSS VL: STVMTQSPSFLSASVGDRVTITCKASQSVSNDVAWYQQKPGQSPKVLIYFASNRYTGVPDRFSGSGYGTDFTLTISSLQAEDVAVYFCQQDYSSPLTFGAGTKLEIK | CDC (10 ug/ml), RC-K8: 530 relative, c2B8 = 100
